The reported measurements were obtained from the supplement of paper PMC8617591.

System: Mycobacterium tuberculosis Erdman (autoluminescent)
test-method-notes: GRinf, maximum normalised growth rate inhibition (three-drug combination) (unitless (-1 to 1)); higher = less effect (negative = killing)
experimental-conditions: in vitro model: butyrate; time point: constant (~7 days, model-specific)
# GRinf listing for each entry below
Form: value (number only, do not type unit).

Value of measured GRinf for the entry CC[C@@H](CO)NCCN[C@@H](CC)CO [ethambutol] + NNC(=O)c1ccncc1 [isoniazid] + O=[N+]([O-])c1cn2c(n1)OC[C@@H](OCc1ccc(OC(F)(F)F)cc1)C2 [pretomanid] : -0.0462

Value of measured GRinf for the entry CC(C)/N=c1\cc2n(-c3ccc(Cl)cc3)c3ccccc3nc-2cc1Nc1ccc(Cl)cc1 [clofazimine] + CC(=O)NC[C@H]1CN(c2ccc(N3CCOCC3)c(F)c2)C(=O)O1 [linezolid] + CO[C@H]1/C=C/O[C@@]2(C)Oc3c(C)c(O)c4c(O)c(c(/C=N/N5CCN(C)CC5)c(O)c4c3C2=O)NC(=O)/C(C)=C\C=C\[C@H](C)[C@H](O)[C@@H](C)[C@@H](O)[C@@H](C)[C@H](OC(C)=O)[C@@H]1C [rifampicin] : -0.0328

Value of measured GRinf for the entry CC[C@@H](CO)NCCN[C@@H](CC)CO [ethambutol] + CC(=O)NC[C@H]1CN(c2ccc(N3CCOCC3)c(F)c2)C(=O)O1 [linezolid] + O=[N+]([O-])c1cn2c(n1)OC[C@@H](OCc1ccc(OC(F)(F)F)cc1)C2 [pretomanid] : 0.0181

Value of measured GRinf for the entry CC[C@@H](CO)NCCN[C@@H](CC)CO [ethambutol] + NC(=O)c1cnccn1 [pyrazinamide] + CO[C@H]1/C=C/O[C@@]2(C)Oc3c(C)c(O)c4c(O)c(c(/C=N/N5CCN(C6CCCC6)CC5)c(O)c4c3C2=O)NC(=O)/C(C)=C\C=C\[C@H](C)[C@H](O)[C@@H](C)[C@@H](O)[C@@H](C)[C@H](OC(C)=O)[C@@H]1C [rifapentine] : 0.0172

Value of measured GRinf for the entry CC[C@@H](CO)NCCN[C@@H](CC)CO [ethambutol] + O=[N+]([O-])c1cn2c(n1)OC[C@@H](OCc1ccc(OC(F)(F)F)cc1)C2 [pretomanid] + CO[C@H]1/C=C/O[C@@]2(C)Oc3c(C)c(O)c4c(O)c(c(/C=N/N5CCN(C6CCCC6)CC5)c(O)c4c3C2=O)NC(=O)/C(C)=C\C=C\[C@H](C)[C@H](O)[C@@H](C)[C@@H](O)[C@@H](C)[C@H](OC(C)=O)[C@@H]1C [rifapentine] : 0.00142

Value of measured GRinf for the entry COc1nc2ccc(Br)cc2cc1[C@@H](c1ccccc1)[C@@](O)(CCN(C)C)c1cccc2ccccc12 [bedaquiline] + O=[N+]([O-])c1cn2c(n1)OC[C@@H](OCc1ccc(OC(F)(F)F)cc1)C2 [pretomanid] + CO[C@H]1/C=C/O[C@@]2(C)Oc3c(C)c(O)c4c(O)c(c(/C=N/N5CCN(C6CCCC6)CC5)c(O)c4c3C2=O)NC(=O)/C(C)=C\C=C\[C@H](C)[C@H](O)[C@@H](C)[C@@H](O)[C@@H](C)[C@H](OC(C)=O)[C@@H]1C [rifapentine] : -0.0563

----------
Tested on: Mycobacterium tuberculosis Erdman (autoluminescent)
test-method-notes: total FIC90 (Loewe) at 90% inhibition, three-drug combination (log2); higher = more antagonistic
experimental-conditions: in vitro model: butyrate; time point: terminal (~4-5 doublings, model-specific)
metric: total FIC90

The cases that follow already have their total FIC90 on record.
CC(C)/N=c1\cc2n(-c3ccc(Cl)cc3)c3ccccc3nc-2cc1Nc1ccc(Cl)cc1 [clofazimine] + CC[C@@H](CO)NCCN[C@@H](CC)CO [ethambutol] + CO[C@H]1/C=C/O[C@@]2(C)Oc3c(C)c(O)c4c(O)c(c(/C=N/N5CCN(C)CC5)c(O)c4c3C2=O)NC(=O)/C(C)=C\C=C\[C@H](C)[C@H](O)[C@@H](C)[C@@H](O)[C@@H](C)[C@H](OC(C)=O)[C@@H]1C [rifampicin]; 0.441
CC(=O)NC[C@H]1CN(c2ccc(N3CCOCC3)c(F)c2)C(=O)O1 [linezolid] + O=[N+]([O-])c1cn2c(n1)OC[C@@H](OCc1ccc(OC(F)(F)F)cc1)C2 [pretomanid] + NC(=O)c1cnccn1 [pyrazinamide]; 0.667

Value of measured total FIC90 for the entry COc1c(N2C[C@@H]3CCCN[C@@H]3C2)c(F)cc2c(=O)c(C(=O)O)cn(C3CC3)c12 [moxifloxacin] + NC(=O)c1cnccn1 [pyrazinamide] + CO[C@H]1/C=C/O[C@@]2(C)Oc3c(C)c(O)c4c(O)c(c(/C=N/N5CCN(C)CC5)c(O)c4c3C2=O)NC(=O)/C(C)=C\C=C\[C@H](C)[C@H](O)[C@@H](C)[C@@H](O)[C@@H](C)[C@H](OC(C)=O)[C@@H]1C [rifampicin] : 1.3
